# targetOfAssay: SMARCA2 (Homo sapiens, UniProt P51531)
# Construct: endogenous in cells; host or cells: HT1080 (CRISPR HiBiT knock-in clone, generated in house)
# Sequence (P51531 whole entry): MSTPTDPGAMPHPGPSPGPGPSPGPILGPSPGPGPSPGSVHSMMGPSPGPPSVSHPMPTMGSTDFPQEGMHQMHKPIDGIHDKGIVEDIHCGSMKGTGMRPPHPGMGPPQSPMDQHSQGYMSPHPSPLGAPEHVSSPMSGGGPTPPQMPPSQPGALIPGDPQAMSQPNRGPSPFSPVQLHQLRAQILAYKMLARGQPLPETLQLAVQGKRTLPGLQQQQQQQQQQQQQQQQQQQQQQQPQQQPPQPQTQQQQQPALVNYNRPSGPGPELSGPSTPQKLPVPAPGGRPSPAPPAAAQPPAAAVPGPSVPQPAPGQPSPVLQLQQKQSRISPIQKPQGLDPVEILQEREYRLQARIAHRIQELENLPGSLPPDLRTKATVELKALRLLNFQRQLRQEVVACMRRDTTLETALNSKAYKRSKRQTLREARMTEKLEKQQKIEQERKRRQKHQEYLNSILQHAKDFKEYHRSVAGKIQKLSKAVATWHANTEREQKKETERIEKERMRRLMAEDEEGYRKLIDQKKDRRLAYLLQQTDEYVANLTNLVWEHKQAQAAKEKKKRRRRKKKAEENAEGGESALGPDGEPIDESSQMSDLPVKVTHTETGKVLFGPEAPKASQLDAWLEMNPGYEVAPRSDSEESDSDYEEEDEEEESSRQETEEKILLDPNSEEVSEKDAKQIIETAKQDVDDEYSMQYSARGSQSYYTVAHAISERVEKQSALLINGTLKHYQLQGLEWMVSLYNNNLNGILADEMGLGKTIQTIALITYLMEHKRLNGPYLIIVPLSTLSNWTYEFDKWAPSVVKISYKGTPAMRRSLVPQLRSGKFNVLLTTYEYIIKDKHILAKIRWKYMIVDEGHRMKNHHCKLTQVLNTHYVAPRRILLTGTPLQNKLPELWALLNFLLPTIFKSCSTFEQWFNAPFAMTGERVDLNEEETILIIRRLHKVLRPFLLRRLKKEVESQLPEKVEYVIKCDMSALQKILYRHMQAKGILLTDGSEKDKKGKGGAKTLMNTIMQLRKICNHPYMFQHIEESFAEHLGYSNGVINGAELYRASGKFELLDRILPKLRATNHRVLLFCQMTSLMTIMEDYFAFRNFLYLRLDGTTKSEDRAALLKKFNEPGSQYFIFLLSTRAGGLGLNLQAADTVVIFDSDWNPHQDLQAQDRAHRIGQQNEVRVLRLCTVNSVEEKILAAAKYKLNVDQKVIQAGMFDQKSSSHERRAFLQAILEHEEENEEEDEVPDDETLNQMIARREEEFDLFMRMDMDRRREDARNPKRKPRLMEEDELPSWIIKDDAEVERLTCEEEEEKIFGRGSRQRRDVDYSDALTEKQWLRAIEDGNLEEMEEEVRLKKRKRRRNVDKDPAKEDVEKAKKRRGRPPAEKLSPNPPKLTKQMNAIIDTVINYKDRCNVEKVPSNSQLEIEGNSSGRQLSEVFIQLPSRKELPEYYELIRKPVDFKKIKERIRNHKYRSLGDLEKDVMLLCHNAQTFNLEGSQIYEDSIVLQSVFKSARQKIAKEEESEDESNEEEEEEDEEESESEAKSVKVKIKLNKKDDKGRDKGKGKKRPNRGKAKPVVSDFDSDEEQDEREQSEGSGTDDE
# experimentalDetails: SMARCA2 HiBiT degradation assay (cellular)
# Format: cell-based
# conditionLabel: A549, 6 h incubation; Emax = amount of residual protein remaining in the cell following compound treatment; table head names A549

| compound | resultUnits | Emax |
| --- | --- | --- |
| Nc1nnc(-c2ccccc2O)cc1N1CC2CCC(C1)N2c1cccc(CN2CCC(C(=O)N3CCC(c4ccc(NC5CCC(=O)NC5=O)cc4)CC3)CC2)c1 (racemic) [Example 93] | % | 52 |
| Nc1nnc(-c2ccccc2O)cc1N1CC2CCC(C1)N2c1cccc(OCCN2CCN(C(=O)N3CCC(c4ccc(NC5CCC(=O)NC5=O)cc4)CC3)CC2)c1 (racemic) [Example 80] | % | 51 |
| Nc1nnc(-c2ccccc2O)cc1N1CCC(C(=O)N2CCC3(CC2)CN(C(=O)COc2ccc4c(c2)C(=O)N(C2CCC(=O)NC2=O)C4=O)CCO3)(c2ccccc2)CC1 (stereo not drawn) [Example 166] | % | 53 |
| Nc1nnc(-c2cc(F)ccc2O)cc1N1CC2CCC(C1)N2c1cccc(CN2CCN(C(=O)C3CCN(c4ccc5c(c4)C(=O)N(C4CCC(=O)NC4=O)C5=O)CC3)CC2)c1 (stereo not drawn) [Example 158] | % | 5 |
| Nc1nnc(-c2ccccc2O)cc1N1CC2CCC(C1)N2c1cccc(CN2CCN(C(=O)CN3CCC(c4ccc(OC5CCC(=O)NC5=O)cc4)CC3)CC2)c1 (racemic) [Example 148] | % | 33 |
| Nc1nnc(-c2ccccc2O)cc1N1CCC(C(=O)NCC2CCN(C(=O)CCCN3CCC(c4ccc(OC5CCC(=O)NC5=O)cc4)CC3)CC2)(c2ccccc2)CC1 (stereo not drawn) [Example 104] | % | 33 |
| Nc1nnc(-c2ccccc2O)cc1N1CC2CCC(C1)N2c1cccc(CN2CCC(C(=O)NC3CCN(c4ccc5c(c4)C(=O)N(C4CCC(=O)NC4=O)C5=O)CC3)CC2)c1 (racemic) [Example 106] | % | 26 |
| Nc1nnc(-c2ccccc2O)cc1N1CC2CCC(C1)N2c1cccc(OCCN2CCN(C(=O)CCC(=O)N3CCC(Oc4ccc5c(c4)C(=O)N(C4CCC(=O)NC4=O)C5=O)CC3)CC2)c1 (racemic) [Example 10] | % | 49 |
| CN(C(=O)C1CCN(Cc2cccc(N3C4CCC3CN(c3cc(-c5ccccc5O)nnc3N)C4)c2)CC1)C1CCN(c2ccc3c(c2)C(=O)N(C2CCC(=O)NC2=O)C3=O)CC1 (racemic) [Example 118] | % | 26 |
| Nc1nnc(-c2ccccc2O)cc1N1CC2CCC(C1)N2c1cccc(OCCN2CCN(C(=O)N3CCN(c4ccc(NC5CCC(=O)NC5=O)cc4)CC3)CC2)c1 (racemic) [Example 81] | % | 56 |
| Nc1nnc(-c2ccccc2O)cc1N1CC2CCC(C1)N2c1cccc(CN2CCN(C(=O)C3CCN(c4ccc5c(c4)C(=O)N(C4CCC(=O)NC4=O)C5=O)CC3)CC2)n1 (racemic) [Example 131] | % | 32 |
| Nc1nnc(-c2ccccc2O)cc1OC1CCCN(c2ccc(N3CCN(CCCCCCCCCc4ccc(CNc5cccc6c5C(=O)N(C5CCC(=O)NC5=O)C6=O)nc4)CC3)cc2)C1 (stereo not drawn) [Example 136] | % | 45 |
| Nc1nnc(-c2ccccc2O)cc1N1CC(Oc2ccc(C(=O)N3CCN(C(=O)CCCCCCCCCNc4cccc5c4C(=O)N(C4CCC(=O)NC4=O)C5=O)CC3)cc2)C1 (stereo not drawn) [Example 150] | % | 65 |
| Nc1nnc(-c2ccccc2O)cc1N1CC2CCC(C1)N2c1cccc(CN2CCC(C(=O)N3CCC(Oc4ccc5c(c4)C(=O)N(C4CCC(=O)NC4=O)C5=O)CC3)CC2)c1 (racemic) [Example 96] | % | 27 |
| Nc1nnc(-c2ccccc2O)cc1OC1CCCN(c2ccc(N3CCN(C(=O)CCCCCCCCCCCn4cc(CNc5cccc6c5C(=O)N(C5CCC(=O)NC5=O)C6=O)nn4)CC3)cc2)C1 (stereo not drawn) [Example 4] | % | 44 |
| Nc1nnc(-c2ccccc2O)cc1OC1CCCN(c2ccc(N3CCN(C(=O)CCCCCCCCn4cc(CNc5cccc6c5C(=O)N(C5CCC(=O)NC5=O)C6)nn4)CC3)cc2)C1 (stereo not drawn) [Example 111] | % | 60 |
| Nc1nnc(-c2ccccc2O)cc1N1CC(Oc2ccc(CN3CCN(C(=O)CCCCCCCCCNc4cccc5c4C(=O)N(C4CCC(=O)NC4=O)C5=O)CC3)cc2)C1 (stereo not drawn) [Example 68] | % | 55 |
| Nc1nnc(-c2ccccc2O)cc1N1CCC(C(=O)N2CCC(NC(=O)C3CCN(c4ccc5c(c4)C(=O)N(C4CCC(=O)NC4=O)C5=O)CC3)CC2)(c2ccccc2)CC1 (stereo not drawn) [Example 119] | % | 50 |
| Nc1nnc(-c2ccccc2O)cc1N1CC(Oc2cccc(N3CCN(C(=O)CCC4CCN(c5ccc6c(c5)C(=O)N(C5CCC(=O)NC5=O)C6=O)CC4)CC3)c2)C1 (racemic) [Example 153] | % | 21 |
| Cc1c(C(=O)N2CCN(C(=O)CCC3CCN(c4ccc5c(c4)C(=O)N(C4CCC(=O)NC4=O)C5=O)CC3)CC2)cccc1N1C2CCC1CN(c1cc(-c3ccccc3O)nnc1N)C2 (racemic) [Example 117] | % | 50 |
| Nc1nnc(-c2ccccc2O)cc1N1CCN(c2ccccc2)C(C(=O)NCC2CCN(C(=O)C3CCN(c4ccc5c(c4)C(=O)N(C4CCC(=O)NC4=O)C5=O)CC3)CC2)C1 (stereo not drawn) [Example 82] | % | 65 |

###

# targetOfAssay: SMARCA2 (Homo sapiens)
# Construct: endogenous in cells; host or cells: HT1080 (CRISPR HiBiT knock-in clone, generated in house)
# experimentalDetails: SMARCA2 HiBiT degradation assay (cellular)
# Format: cell-based
# conditionLabel: 6 h incubation; HiBiT-tagged SMARCA2, luminescence read-out; table head names A549; read-out: HiBit A549 SMARCA2 IP (nM) 6 h
Checkbox rule: DC50 lower than 100 nM = 1 (yes); DC50 not lower than 100 nM = 0 (no).

| compound | assignedCategory |
| --- | --- |
| Nc1nnc(-c2ccccc2O)cc1N1CC2CCC(C1)N2c1cccc(CN2CCC(C(=O)N3CCN(c4ccc(OC5CCC(=O)NC5=O)cc4)CC3)CC2)c1 (racemic) | 1 (yes) |
| Nc1nnc(-c2ccccc2O)cc1OC1CCCN(c2ccc(N3CCN(CC4CN(C(=O)CCCCn5cc(COc6cccc7c6C(=O)N(C6CCC(=O)NC6=O)C7=O)nn5)C4)CC3)cc2)C1 (racemic) | 0 (no) |
| Nc1nnc(-c2ccccc2O)cc1N1CCC(OCC(=O)NC2CCN(C(=O)C3CCN(c4ccc5c(c4)C(=O)N(C4CCC(=O)NC4=O)C5=O)CC3)CC2)(c2ccccc2)CC1 (stereo not shown) | 1 (yes) |
| Nc1nnc(-c2ccccc2O)cc1N1CC2CCC(C1)N2c1cccc(OCCN2CCN(C(=O)CCCCCCCNc3cccc4c3C(=O)N(C3CCC(=O)NC3=O)C4=O)CC2)c1 (racemic) | 0 (no) |
| Nc1nnc(-c2ccccc2O)cc1OC1CCCN(c2ccc(N3CCN(C(=O)CCCCCCCCCCCCCCn4cc(CNc5cccc6c5C(=O)N(C5CCC(=O)NC5=O)C6=O)nn4)CC3)cc2)C1 (stereo not shown) | 0 (no) |
| Nc1nnc(-c2cc(F)ccc2O)cc1N1C2CCC1CN(c1cccc(OCCN3CCN(CC4CCN(c5ccc6c(c5)C(=O)N(C5CCC(=O)NC5=O)C6=O)CC4)CC3)c1)C2 (stereo not shown) | 0 (no) |
| Nc1nnc(-c2ccccc2O)cc1N1CCC(C(=O)N2CCC(NC(=O)C3CCN(c4ccc5c(c4)C(=O)N(C4CCC(=O)NC4=O)C5=O)CC3)CC2)(c2ccccc2)CC1 (stereo not shown) | 1 (yes) |
| Nc1nnc(-c2ccccc2O)cc1N1CCN(c2cccc(CN3CCN(C(=O)COc4ccc5c(c4)C(=O)N(C4CCC(=O)NC4=O)C5=O)CC3)c2)C2(CC2)C1 (stereo not shown) | 1 (yes) |
| Nc1nnc(-c2ccccc2O)cc1O[C@@H]1CCCN(c2ccc(N3CCN(C(=O)CCCCCCCCn4cc(CNc5cccc6c5C(=O)N(C5CCC(=O)NC5=O)C6=O)nn4)CC3)cc2)C1 (mixture of isomers) | 0 (no) |
| Nc1nnc(-c2ccccc2O)cc1OC1CCCN(c2ccc(OCCN3CCN(C(=O)CCCCCCCCCCCCC(=O)N4CCN(c5ccc(NC6CCC(=O)NC6=O)cc5)CC4)CC3)cc2)C1 (stereo not shown) | 0 (no) |

###

Emax values by entry
# targetOfAssay: SMARCA2 (Homo sapiens, UniProt P51531)
# Construct: endogenous in cells; host or cells: HT1080 (CRISPR HiBiT knock-in clone, generated in house)
# experimentalDetails: SMARCA2 HiBiT degradation assay (cellular)
# Assay type: cell-based
# conditionLabel: A549, 6 h incubation; Emax = amount of residual protein remaining in the cell following compound treatment; table head names A549

| molecule | Emax / % |
| --- | --- |
| Nc1nnc(-c2ccccc2O)cc1N1CC2CCC(C1)N2c1cccc(CN2CCC(C(=O)N3C[C@@H]4CN(c5ccc6c(c5)C(=O)N(C5CCC(=O)NC5=O)C6=O)C[C@@H]4C3)CC2)c1 (relative stereo) | 40 |
| Nc1nnc(-c2ccccc2O)cc1N1CC2CCC(C1)N2c1nccc(OCCN2CCN(CCCOC3CCN(c4ccc5c(c4)C(=O)N(C4CCC(=O)NC4=O)C5=O)CC3)CC2)n1 (racemic) | 30 |
| Nc1nnc(-c2ccccc2O)cc1N1CC2CCC(C1)N2c1cccc(OCCN2CCN(C(=O)CCC3CCN(c4ccc5c(c4)C(=O)N(C4CCC(=O)NC4=O)C5=O)CC3)CC2)c1 (racemic) | 45 |
